Taken from the supplement of paper PMC10933113.

Each record here notes measured CD86 surface expression induction.
test system: THP-1; experiment: CD86 surface expression induction over DMSO control (% over DMSO); higher = stronger dendritic cell activation; settings: exposure time: 24 h
property.name: CD86 surface expression induction

>>> measured_number("CCCCOCCOCCOCCO [2-[2-(2-Butoxyethoxy)ethoxy]ethanol] (115 µM)")
12.7
>>> measured_number("CCCCCCCCCCCCCC[N+](C)(C)C [Tetradonium bromide] (10 µM)")
53
>>> measured_number("Clc1ccc(C(Cn2ccnc2)OCc2c(Cl)cccc2Cl)c(Cl)c1 (centres undefined) [Isoconazole] (100 µM)")
76.1
>>> measured_number("CCN(CC)CCOc1ccc2c(c1)C(=O)c1cc(OCCN(CC)CC)ccc1-2 [Tilorone] (200 µM)")
58

====

system: THP-1; experiment: CD54 surface expression induction over DMSO control (% over DMSO); higher = stronger dendritic cell activation; details: exposure time: 24 h
Counter-ions that a name gives are not always drawn.
Each record here notes measured CD54 surface expression induction.
property.name: CD54 surface expression induction

>>> result("O=C1c2cccc(O)c2C(=O)c2c(O)cc(CO)cc21 [Aloe-emodin] (100 µM)")
24.6
>>> result("O=c1[nH]sc2cc(Cl)ccc12 [Ticlatone] (10 µM)")
-4.79
>>> result("c1ccc(CCNc2nc(-c3ccccc3)cs2)cc1 [Fanetizole] (200 µM)")
-4.51
>>> result("Nc1ccc(/N=N/c2ccccc2)c(N)n1 [Phenazopyridine hydrochloride] (100 µM)")
-3.19
>>> result("c1ccc2cc3c(ccc4ccccc43)cc2c1 [Benz(a)anthracene] (200 µM)")
-2.28
>>> result("CCCCOCCOCCOCCO [2-[2-(2-Butoxyethoxy)ethoxy]ethanol] (115 µM)")
20.1
>>> result("O=C(O)CCCCCCCCC(=O)O [Decanedioic acid] (200 µM)")
-0.56
>>> result("CC(=O)Oc1ccc(C2(c3ccc(OC(C)=O)cc3)C(=O)Nc3ccccc32)cc1 [Oxyphenisatin acetate] (100 µM)")
9.56
>>> result("O=CC(=O)c1ccccc1 [Phenyl glyoxal] (100 µM)")
-5.43

====

test system: THP-1; assay: CD54 surface expression induction over DMSO control (% over DMSO); higher = stronger dendritic cell activation; conditions: exposure time: 24 h
Counter-ions that a name gives are not always drawn.
property.name: CD54 surface expression induction

>>> measured_number("CC(C)NC(=O)c1ccc(C=O)cc1 [N-isopropyl-4-formylbenzamide] (100 µM)")
-11.6
>>> measured_number("CCCCCCCCCCCCCCCC[N+](C)(C)Cc1ccccc1 [Benzylhexadecyldimethylammonium chloride] (10 µM)")
20.1
>>> measured_number("S=C(NC1CCCCC1)NC1CCCCC1 [N,N'-Dicyclohexylthiourea] (10 µM)")
-7.65
>>> measured_number("Cn1sccc1=O [2-Methyl-4-isothiazolin-3-one hydrochloride] (10 µM)")
-19.5
>>> measured_number("Nc1cc(Cl)c(O)c(Cl)c1 [4-Amino-2,6-dichlorophenol] (100 µM)")
18

====

tested on: THP-1; assay: CD86 surface expression induction over DMSO control (% over DMSO); higher = stronger dendritic cell activation; settings: exposure time: 24 h
Counter-ions that a name gives are not always drawn.
Hi, to clarify the labels: true (1) covers CD86 surface expression induction from -10 upward, false (0) covers anything below -10.

>>> group("CCN(CC)c1ccc(C(=O)c2ccccc2C(=O)O)c(O)c1 [2-[4-(Diethylamino)-2-hydroxybenzoyl]benzoic acid] (10 µM)")
"false (0)"
>>> group("S=C(NC1CCCCC1)NC1CCCCC1 [N,N'-Dicyclohexylthiourea] (10 µM)")
"false (0)"
>>> group("c1ccc2[nH]c(-c3cscn3)nc2c1 [Thiabendazole] (100 µM)")
"true (1)"
>>> group("Cn1sccc1=O [2-Methyl-4-isothiazolin-3-one hydrochloride] (10 µM)")
"false (0)"
>>> group("CC(C)=CCOc1ccc(/C=C/C(=O)c2ccc(OCC=C(C)C)cc2OCC(=O)O)cc1 [Sofalcone] (100 µM)")
"true (1)"

====

system: THP-1; assay: CD86 surface expression induction over DMSO control (% over DMSO); higher = stronger dendritic cell activation; settings: exposure time: 24 h
Hi, to clarify the labels: YES covers CD86 surface expression induction from -5 upward, NO covers anything below -5.

>>> group("CCOc1ccc2nc(S(N)(=O)=O)sc2c1 [Ethoxzolamide] (200 µM)")
"YES"
>>> group("C=CC(=O)OCCOC(=O)CCC(=O)O [4-[2-(Acryloyloxy)ethoxy]-4-oxobutanoic acid] (200 µM)")
"NO"
>>> group("CC(C)CCCCCCCOC(=O)c1ccc(C(=O)OCCCCCCCC(C)C)c(C(=O)OCCCCCCCC(C)C)c1 [Triisodecyl trimellitate] (163 µM)")
"NO"
>>> group("CC(C)c1ccc2oc3nc(N)c(C(=O)O)cc3c(=O)c2c1 [Amlexanox] (100 µM)")
"YES"
>>> group("CCC(=O)C=Cc1ccc(OC)cc1 [1-(4-Methoxyphenyl)-1-pentene-3-one] (200 µM)")
"YES"
>>> group("[Cl][Bi]([Cl])([c]1ccccc1)([c]1ccccc1)[c]1ccccc1 [Triphenylbismuthine dichloride] (10 µM)")
"YES"
>>> group("O=C(O)c1cc(O)c2ccccc2c1O [1,4-dihydroxy-2-naphthoic acid*] (10 µM)")
"YES"
>>> group("Nc1ncn([C@@H]2O[C@H](CO)[C@@H](O)[C@H]2O)c(=O)n1 [5-Azacytidine] (10 µM)")
"NO"
>>> group("CCCOc1ccc2[nH]c(NC(=O)OC)nc2c1 [Oxibendazole] (100 µM)")
"YES"
>>> group("Clc1nc(C(Cl)(Cl)Cl)c(Cl)c(Cl)c1Cl [2,3,4,5-Tetrachloro-6-(trichloromethyl)pyridine] (10 µM)")
"NO"
>>> group("CC1COc2ccccc2N1C(=O)C(Cl)Cl (configuration not stated) [Benoxacor] (10 µM)")
"YES"
>>> group("COC(=O)Nc1nc2cc(Sc3ccccc3)ccc2[nH]1 [Fenbendazole] (100 µM)")
"NO"
>>> group("CC(C(=O)O)c1ccc(/C=C2\\CCCCC2=O)cc1 (configuration not stated) [Pelubiprofen] (100 µM)")
"YES"
>>> group("O=C(/C=C/C=C/c1ccc2c(c1)OCO2)N1CCCCC1 [Piperine] (100 µM)")
"YES"
>>> group("CC(C)(C)c1cc(O)c(C(C)(C)C)cc1O [2,5-Di-tert-butylbenzene-1,4-diol] (100 µM)")
"YES"
>>> group("CC(C)(C)c1cc(O)ccc1O [tert-Butylhydroquinone] (100 µM)")
"YES"
>>> group("Nc1ccc2cc3ccccc3cc2c1 [2-Aminoanthracene] (200 µM)")
"NO"

====

tested on: THP-1; test: CD54 surface expression induction over DMSO control (% over DMSO); higher = stronger dendritic cell activation; settings: exposure time: 24 h
Each record here notes measured CD54 surface expression induction.
property.name: CD54 surface expression induction

>>> measured_number("CC1=C(/C=C/C(C)=C/C=C/C(C)=C/C=O)C(C)(C)CCC1 [13-cis-Retinal (Vitamin A aldehyde)] (100 µM)")
188
>>> measured_number("C=CC(C)(CCC=C(C)C)OC(=O)CC(C)C (centres undefined) [Linalyl isovalerate] (200 µM)")
16.3
>>> measured_number("CCCCCCCCCCC=CC1CC(=O)OC1=O (centres undefined) [3-(Dodecenyl)dihydro-2,5-furandione] (200 µM)")
16
>>> measured_number("CC[C@@]1(O)C(=O)OCc2c1cc1n(c2=O)Cc2c-1nc1ccccc1c2/C=N/OC(C)(C)C [Gimatecan] (10 µM)")
-15.7

====

system: THP-1; test: CD54 surface expression induction over DMSO control (% over DMSO); higher = stronger dendritic cell activation; conditions: exposure time: 24 h
Each record here notes measured CD54 surface expression induction.
property.name: CD54 surface expression induction

>>> measured_number("CCC1OCC(COc2ccc(Oc3ccccc3)cc2)O1 (stereo not drawn) [Diofenolan] (10 µM)")
-6.06
>>> measured_number("COC(=O)Nc1nc2cc(Sc3ccccc3)ccc2[nH]1 [Fenbendazole] (100 µM)")
-38.1
>>> measured_number("c1ccc2[nH]c(-c3cscn3)nc2c1 [Thiabendazole] (100 µM)")
-2.19

====

system: THP-1; test: CD54 surface expression induction over DMSO control (% over DMSO); higher = stronger dendritic cell activation; details: exposure time: 24 h
Counter-ions that a name gives are not always drawn.
So basically every entry gets a class from its CD54 surface expression induction, ranges being bottom = under -4, middle = from -4 up to 20, top = 20 and over

>>> group("CCCCCCCCN [n-Octylamine] (100 µM)")
"bottom"
>>> group("C/C=C1\\C(=O)C[C@H]2[C@@H]3CCC4=CC(=O)CC[C@]4(C)[C@H]3CC[C@]12C [Guggulsterone Z] (100 µM)")
"middle"
>>> group("C=CC(=O)OCCOC(=O)CCC(=O)O [4-[2-(Acryloyloxy)ethoxy]-4-oxobutanoic acid] (200 µM)")
"middle"
>>> group("CC(C)c1ccc2oc3nc(N)c(C(=O)O)cc3c(=O)c2c1 [Amlexanox] (100 µM)")
"bottom"
>>> group("O=[N+]([O-])c1cc(Cl)c(Cl)c(Cl)c1Cl [2,3,4,5-Tetrachloronitrobenzene] (10 µM)")
"bottom"
>>> group("O=C1Nc2ccccc2C1(c1ccc(O)cc1)c1ccc(O)cc1 [Oxyphenisatin] (100 µM)")
"middle"
>>> group("Oc1ccc2ccccc2c1N=Nc1ccccc1 [C.I. Solvent Yellow 14] (200 µM)")
"middle"
>>> group("CC(C)(C)c1ccc(S)cc1 [4-tert-Butylbenzenethiol] (200 µM)")
"top"
>>> group("C=CCOC(=O)/C=C\\C(=O)OCC=C [Diprop-2-en-1-yl (2Z)-but-2-enedioate] (203 µM)")
"middle"
>>> group("CC(C)(C)c1ccc(C(=O)CCCCl)cc1 [4'-Tert-butyl-4-chlorobutyrophenone] (100 µM)")
"middle"
>>> group("CO[C@@]12[C@H](COC(N)=O)C3=C(C(=O)C(C)=C(N)C3=O)N1C[C@@H]1N[C@@H]12 [Mitomycin C] (100 µM)")
"top"
>>> group("C#CCN(C)CCCOc1ccc(Cl)cc1Cl [Clorgyline hydrochloride] (100 µM)")
"bottom"
>>> group("COC(=O)Nc1nc2ccc(C(=O)C3CC3)cc2[nH]1 [Cyclobendazole] (100 µM)")
"bottom"
>>> group("Cc1c(C)n(CCN(C)C)c2ccc(C(=O)OCCN(C)C)cc12 [Amindocate] (100 µM)")
"bottom"
>>> group("C=CCOC(Cn1ccnc1)c1ccc(Cl)cc1Cl (configuration not stated) [Imazalil sulfate] (100 µM)")
"middle"
>>> group("CCCCCCCCCCCCCC[N+](C)(C)C [Tetradonium bromide] (10 µM)")
"middle"
>>> group("CCN(CC)CCSC(=O)C(c1ccccc1)c1ccccc1 [Thiphenamil] (200 µM)")
"top"
>>> group("CCN(CC)CCOc1ccc2c(c1)C(=O)c1cc(OCCN(CC)CC)ccc1-2 [Tilorone] (200 µM)")
"top"
>>> group("Nc1cc(-c2ccncc2)c[nH]c1=O [Amrinone] (100 µM)")
"middle"
>>> group("COc1ccc(C(=O)/C(Br)=C\\C(=O)O)cc1 [Cytembena] (200 µM)")
"top"
>>> group("COc1cccc2c1C(=O)c1c(O)c3c(c(O)c1C2=O)C[C@@](O)(C(=O)CO)C[C@@H]3O[C@H]1C[C@H](N)[C@H](O)[C@H](C)O1 [Doxorubicin*] (10 µM)")
"top"
>>> group("CC1=C(/C=C/C(C)=C\\C=C\\C(C)=C\\C(=O)O)C(C)(C)CCC1 [9-cis Retinoic acid] (100 µM)")
"top"
>>> group("CCCCCCCCCCCC(=O)NCCCN(C)C [N-[3-(Dimethylamino)propyl]dodecanamide] (200 µM)")
"middle"
>>> group("N=C1C=CC(=C(c2ccc(N)cc2)c2ccc(N)cc2)C=C1 [C.I. Basic Red 9 monohydrochloride] (10 µM)")
"middle"
>>> group("Nc1ccc(Nc2ccccc2)cc1 [N-Phenyl-1,4-benzenediamine] (200 µM)")
"top"
>>> group("CC(=O)C1(C)CC2=C(CCCC2(C)C)CC1C (configuration not stated) (100 µM)")
"middle"
